# target of assay: Bcl-2-like protein 10 (Homo sapiens, UniProt Q9HD36)
# Sequence (Q9HD36 whole entry): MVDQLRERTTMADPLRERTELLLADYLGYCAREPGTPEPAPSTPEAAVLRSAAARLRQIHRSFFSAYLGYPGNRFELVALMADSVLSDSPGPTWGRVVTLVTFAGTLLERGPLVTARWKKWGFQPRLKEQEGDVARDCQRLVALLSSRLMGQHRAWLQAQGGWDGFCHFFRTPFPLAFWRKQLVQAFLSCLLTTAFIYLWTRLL
# assay overview: displacers of TR3 peptide from Bcl-B, primary screen, selectivity assay for Bfl-1 inhibitor project, biochemical, fluorescence polarization, FITC-TR3 peptide (AID 748);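 further: fluorescence polarization from a fluorescein-labelled TR3 peptide binding purified Bcl-B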
The source made the active and inactive calls. No stated cut-off is given here; in the data, active = IC50 of 50 µM or less and inactive = more.
measured attribute: IC50

>  <smiles representation>
O=C(O)CCc1ccc(-c2cccs2)n1CCC(=O)O

>  <measured attribute>
IC50

>  <result>
77 µM (inactive)

$$$$
>  <smiles representation>
O=C(NCCCN1CCN(Cc2ccccc2)CC1)C1CCN(c2nnc(-n3cccc3)s2)CC1

>  <measured attribute>
IC50

>  <result>
62.8 µM (inactive)

$$$$
>  <smiles representation>
COC(=O)c1cccc(NC(=O)CSc2nc(C)cc(O)n2)c1

>  <measured attribute>
IC50

>  <result>
56.8 µM (inactive)

$$$$

Consider the record given below.
Lookup: // IC50 lookup, key: FC(F)(F)c1cnc(Nc2ccc(N3CCOCC3)cc2)c(Cl)c1
Found: 76.3 µM (inactive)
